- STUDY_TARGET: isolated recombinant JAK2 kinase domain (Homo sapiens, UniProt O60674)
- Sequence (O60674 849-1124 limits assumed): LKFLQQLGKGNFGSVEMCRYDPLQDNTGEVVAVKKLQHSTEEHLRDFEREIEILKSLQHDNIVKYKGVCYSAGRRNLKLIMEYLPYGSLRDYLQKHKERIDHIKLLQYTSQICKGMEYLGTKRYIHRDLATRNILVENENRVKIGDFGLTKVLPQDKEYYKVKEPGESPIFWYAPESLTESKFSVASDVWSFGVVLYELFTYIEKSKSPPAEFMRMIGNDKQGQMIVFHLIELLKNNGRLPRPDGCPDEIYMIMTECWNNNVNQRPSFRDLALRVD
- ASSAY_OVERVIEW: JAK enzyme assay (Caliper LabChip), JAK2 kinase domain
- EXPERIMENTAL_PARAMETERS: ATP 25 μM, 0.2 nM JAK2, Morrison tight binding model
Each entry below carries its recorded pKi.
pKi field: float, defined as -log10 of concentration (mol/L).

Exercise: # assay system isolated recombinant JAK2 kinase domain (Homo sapiens, UniProt O60674): give pKi of CSc1ccc(OC(F)F)c(-c2nn(CC(N)=O)cc2NC(=O)c2cnn3cccnc23)c1
Solution: 10.00

Exercise: # assay system isolated recombinant JAK2 kinase domain (Homo sapiens, UniProt O60674): give pKi of O=C(Nc1cn(CC(=O)N2CCCCC2)nc1-c1cc(SC2COC2)ccc1OC(F)F)c1cnn2cccnc12
Solution: 9.02
